src = ChEMBL document CHEMBL4118073

Biological target: Alpha-1 adrenergic receptor (Mus musculus, UniProt P97714+P97717+P97718)
Sequence (P97714 whole entry): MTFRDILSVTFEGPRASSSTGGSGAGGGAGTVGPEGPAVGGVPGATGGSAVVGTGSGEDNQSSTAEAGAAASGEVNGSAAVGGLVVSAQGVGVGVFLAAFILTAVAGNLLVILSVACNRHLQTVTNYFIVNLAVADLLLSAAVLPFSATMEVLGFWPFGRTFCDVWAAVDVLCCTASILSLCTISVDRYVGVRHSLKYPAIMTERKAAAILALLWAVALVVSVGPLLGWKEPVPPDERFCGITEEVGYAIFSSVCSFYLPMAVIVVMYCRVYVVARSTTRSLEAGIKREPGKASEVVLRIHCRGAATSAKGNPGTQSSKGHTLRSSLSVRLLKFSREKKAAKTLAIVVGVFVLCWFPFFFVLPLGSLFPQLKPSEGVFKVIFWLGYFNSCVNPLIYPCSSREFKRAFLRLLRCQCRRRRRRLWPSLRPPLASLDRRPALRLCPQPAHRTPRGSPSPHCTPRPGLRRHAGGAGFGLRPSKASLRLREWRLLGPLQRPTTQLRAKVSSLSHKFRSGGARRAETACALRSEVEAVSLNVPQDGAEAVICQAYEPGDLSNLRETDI
Sequence (P97717 whole entry): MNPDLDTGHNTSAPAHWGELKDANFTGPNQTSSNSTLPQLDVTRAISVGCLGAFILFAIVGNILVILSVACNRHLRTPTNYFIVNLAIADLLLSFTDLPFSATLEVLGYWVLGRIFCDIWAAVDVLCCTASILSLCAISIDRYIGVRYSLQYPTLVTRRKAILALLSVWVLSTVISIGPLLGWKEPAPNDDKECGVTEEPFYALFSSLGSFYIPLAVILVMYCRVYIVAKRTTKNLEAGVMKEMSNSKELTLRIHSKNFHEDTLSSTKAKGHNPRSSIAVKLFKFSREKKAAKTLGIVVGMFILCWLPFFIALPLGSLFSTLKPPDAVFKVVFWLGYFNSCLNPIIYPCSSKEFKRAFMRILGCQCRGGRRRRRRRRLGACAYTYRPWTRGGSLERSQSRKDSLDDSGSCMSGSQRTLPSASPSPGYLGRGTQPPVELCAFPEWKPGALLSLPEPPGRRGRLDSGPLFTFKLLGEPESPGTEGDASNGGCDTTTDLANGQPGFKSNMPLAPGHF
Sequence (P97718 whole entry): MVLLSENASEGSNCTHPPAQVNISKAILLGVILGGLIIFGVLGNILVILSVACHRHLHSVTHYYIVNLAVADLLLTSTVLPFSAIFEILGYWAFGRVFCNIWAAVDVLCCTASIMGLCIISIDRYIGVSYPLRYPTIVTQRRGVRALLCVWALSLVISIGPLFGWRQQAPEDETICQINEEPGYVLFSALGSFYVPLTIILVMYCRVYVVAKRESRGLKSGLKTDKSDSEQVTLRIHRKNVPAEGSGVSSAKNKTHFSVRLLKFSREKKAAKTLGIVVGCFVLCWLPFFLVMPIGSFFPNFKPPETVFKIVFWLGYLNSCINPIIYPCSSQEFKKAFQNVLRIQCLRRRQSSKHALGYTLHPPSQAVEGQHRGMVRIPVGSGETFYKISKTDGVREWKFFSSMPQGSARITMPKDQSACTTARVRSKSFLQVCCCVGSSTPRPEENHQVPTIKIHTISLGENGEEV
Assay: Displacement of [3H]prazosin from alpha1 adrenoceptor in C57BL/6 mouse hippocampal homogenates after 40 mins by liquid scintillation counting method
Param label: returns Met when IC50 < 600 nM, returns Not met otherwise, including exact equality.

>>> print(df.to_string())
                                 cpd_smiles  assigned_class
0  CCN1/C(=C/c2ccc3cc(F)ccc3[n+]2CC)C=Cc2ccccc21.[I-]             Met
1  CCN1/C(=C/c2ccc3cc(I)ccc3[n+]2CC)C=Cc2ccccc21.[I-]         Not met
2  CCOc1ccccc1OCCN[C@H](C)Cc1ccc(OC)c(S(N)(=O)=O)c1             Met
3  CCN1/C(=C/c2ccc3ccccc3[n+]2CC)C=Cc2ccccc21.[I-]             Met
4  CC(C)[n+]1ccc(/C=C2/C=Cc3ccccc3N2C)c2ccccc21.O=C([O-])C(F)(F)F         Not met
5  CCN1/C(=C/c2ccc3cc(Cl)ccc3[n+]2CC)C=Cc2ccccc21.[I-]             Met
